Ref: patent US12540141B2

Measured IC50 (SARS-CoV-2 3CL-protease (Severe acute respiratory syndrome coronavirus 2, UniProt P0DTD1))
Quantity Name: IC50

• Cc1cccc(CC(=O)N(C)[C@@H](CC(C)(C)F)C(=O)N2C[C@]3(C[C@H]2C#N)C(=O)Nc2ccc(Cl)cc23)n1 = < 100 nM
• CC(C)C[C@@H](C(=O)N1C[C@]2(C[C@H]1C#N)C(=O)Nc1ccccc12)N(C)C(=O)c1cccc(F)c1Cl = < 100 nM
• CC(C)C[C@@H](C(=O)N1C[C@]2(C[C@H]1C#N)C(=O)Nc1ccc(-c3ccn(C(F)F)n3)cc12)N(C)C(=O)c1cc2c(F)cc(F)cc2[nH]1 = < 100 nM
